Target: T1, human CD276 protein (human, UniProt Q5ZPR3 29-534)
T1 sequence (looked up): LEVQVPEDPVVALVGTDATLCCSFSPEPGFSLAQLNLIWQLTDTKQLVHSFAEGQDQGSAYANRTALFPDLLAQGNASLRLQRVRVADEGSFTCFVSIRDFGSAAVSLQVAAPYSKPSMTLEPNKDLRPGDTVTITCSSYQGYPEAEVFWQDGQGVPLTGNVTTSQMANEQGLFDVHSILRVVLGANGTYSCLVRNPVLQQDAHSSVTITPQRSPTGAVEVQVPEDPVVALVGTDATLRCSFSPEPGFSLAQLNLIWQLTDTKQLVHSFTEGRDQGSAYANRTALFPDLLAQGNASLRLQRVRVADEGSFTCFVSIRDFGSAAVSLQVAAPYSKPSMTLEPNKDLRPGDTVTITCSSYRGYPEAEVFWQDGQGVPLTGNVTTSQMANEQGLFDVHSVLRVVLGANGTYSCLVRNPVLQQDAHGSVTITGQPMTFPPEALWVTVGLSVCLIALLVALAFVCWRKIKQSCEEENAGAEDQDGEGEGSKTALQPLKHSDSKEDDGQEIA
Test: cell-based or functional assay
Provide the reported EC50 of antibody induced ADCC effect on SKOV3 of each item.
Numbers only, in µg/mL.

Binder	Quantitative result
18-F9-D8-G7 (human IgG1 chimeric antibody) (antibody, V domains shown, human IgG1 chimeric antibody of the mouse clone) VH: EVQLQQSGPELVRPGVSVKISCKGSGYTFTDYAMHWVKQSHAQSLEWIGIINTYSGDTNYNQKFKGKATMTVDKSSSTAYMGLARLTSEDSAIFYCARGGGNYPYWYFDVWGAGTTVTVSS VL: ENVLTQSPAIMSASPGEKVTMTCRASSSVSSSYLHWYQQKSGDSPKLWIYSTSNLASGVPARFSGSGSGTSYSLTISSVEAEDAATYYCQQFSVYPLTFGAGTKLEIK	0.503

Turning now to a further binder:
Using the record for 20-A2-D10-G8 (human IgG1 chimeric antibody) (antibody, V domains shown, human IgG1 chimeric antibody of the mouse clone) VH: QVQLQQSGPELVRPGVSVKISCKGSGYTFTDYTMHWVKESHAQSLEWIGVISTYYGNTNYNQNFKGKATLTVDKSSSTAYMELAGLTSEDSAIYYCARASYGSGYGPYYWYFDVWGAGTTVTVSS VL: DIQMTQSPASLFASVGETVTITCRASEKIYSYLAWYFQKQGKSPQFLVYNANALAEGVPSRFSGSGSGTQFSLKIKSLQPEDFGTYYCQHHYGSPVTFGAGSKLELK , report its EC50 of antibody induced ADCC effect on SKOV3.
0.263
